Every entry's value here was drawn from ChEMBL document CHEMBL1127680.

# Species on record: Oryctolagus cuniculus
# experiment_summary: The compound was evaluated for the inhibition of Na+-dependent [3H]taurocholate uptake into ileal brush border membrane vesicles in rabbit, by 50%
# Type: functional
readout_label: pIC50
In textbook form, pIC50 equals minus log to base ten of the concentration in mol/L.

Query: Find the measured pIC50 of CC(CCC(=O)N[C@H]1CC[C@@]2(C)[C@@H](C1)C[C@@H](O)[C@@H]1[C@@H]2C[C@H](O)[C@]2(C)C(C(C)CCC(=O)O)CC[C@@H]12)C1CC[C@H]2[C@@H]3[C@H](O)C[C@@H]4C[C@H](O)CC[C@]4(C)[C@H]3C[C@H](O)[C@]12C (stereo not given in full) and report it.
Result: 4.32

Query: Find the measured pIC50 of CC(CCC(=O)O)C1CC[C@H]2[C@@H]3[C@H](O)C[C@@H]4C[C@@H](OCCNC(=O)CCC(=O)NCCCNC(=O)CCC(C)C5CC[C@H]6[C@@H]7[C@H](O)C[C@@H]8C[C@H](OC(c9ccccc9)c9ccccc9)CC[C@]8(C)[C@H]7C[C@H](O)[C@]56C)CC[C@]4(C)[C@H]3C[C@H](O)[C@]12C (stereo not given in full) and report it.
Result: 4.72

====

# Species on record: Oryctolagus cuniculus
# experiment_summary: The compound was evaluated for the inhibition of Na+-dependent [3H]taurocholate uptake into ileal brush border membrane vesicles in rabbit, by 25%
# Assay type: functional
Give measured IC25 for each item. Keep answers brief.
Note: unit µM is implicit; provide only the numeric part.

Query: Find the measured IC25 of C[C@H](CCC(=O)NCCS(=O)(=O)O)[C@H]1CC[C@H]2[C@@H]3[C@H](O)C[C@@H]4C[C@H](O)CC[C@]4(C)[C@H]3CC[C@]12C and report it.
Result: 13

Query: Find the measured IC25 of CC(CCC(=O)O)C1CC[C@H]2[C@@H]3[C@H](O)C[C@@H]4C[C@@H](OCCNC(=O)CCC(=O)NCCCNC(=O)CCC(C)C5CC[C@H]6[C@@H]7[C@H](O)C[C@@H]8C[C@H](OC(c9ccccc9)c9ccccc9)CC[C@]8(C)[C@H]7C[C@H](O)[C@]56C)CC[C@]4(C)[C@H]3C[C@H](O)[C@]12C (some centres not stated) and report it.
Result: 9

Query: Find the measured IC25 of CC(CCC(=O)N[C@H]1CC[C@@]2(C)[C@@H](C1)C[C@@H](O)[C@@H]1[C@@H]2C[C@H](O)[C@]2(C)C(C(C)CCC(=O)O)CC[C@@H]12)C1CC[C@H]2[C@@H]3[C@H](O)C[C@@H]4C[C@H](O)CC[C@]4(C)[C@H]3C[C@H](O)[C@]12C (some centres not stated) and report it.
Result: 24

Query: Find the measured IC25 of CC(CCC(=O)O)C1CC[C@H]2[C@@H]3[C@H](O)C[C@@H]4C[C@@H](OCCNC(=O)CCC(C)C5CC[C@H]6[C@@H]7[C@H](O)C[C@@H]8C[C@H](OC(c9ccccc9)c9ccccc9)CC[C@]8(C)[C@H]7C[C@H](O)[C@]56C)CC[C@]4(C)[C@H]3C[C@H](O)[C@]12C (some centres not stated) and report it.
Result: 125

Query: Find the measured IC25 of C[C@H](CCC(=O)O)[C@H]1CC[C@H]2[C@@H]3[C@H](O)C[C@@H]4C[C@H](O)CC[C@]4(C)[C@H]3C[C@H](O)[C@]12C and report it.
Result: 40

Query: Find the measured IC25 of CC(CCC(=O)O)C1CC[C@H]2[C@@H]3[C@H](O)C[C@@H]4C[C@@H](NC(=O)CCC(C)C5CC[C@H]6[C@@H]7CC[C@@H]8C[C@H](O)CC[C@]8(C)[C@H]7CC[C@]56C)CC[C@]4(C)[C@H]3C[C@H](O)[C@]12C (some centres not stated) and report it.
Result: 176

Query: Find the measured IC25 of CC(CCC(=O)O)C1CC[C@H]2[C@@H]3[C@H](O)C[C@@H]4C[C@@H](OCCNC(=O)CCC(C)C5CC[C@H]6[C@@H]7CC[C@@H]8C[C@H](O)CC[C@]8(C)[C@H]7CC[C@]56C)CC[C@]4(C)[C@H]3C[C@H](O)[C@]12C (some centres not stated) and report it.
Result: 154
